- Subject Of Test: Mu-type opioid receptor (Homo sapiens)
- Assay: Displacement of [3H]diprenorphine from human mu opioid receptor expressed in CHO cells in presence of high sodium by SPA
- Format: cell-based
pKi: −log10 of the molar value.
In this section, each of the compounds is paired with its reported pKi.
Metric: pKi

> print(dat)
                              input.smiles  metric  test.value
1  NC(=O)c1ccnc(Oc2ccc(CCNCc3ccccc3)cc2)c1     pKi      < 5.60
2    NC(=O)c1cccnc1Oc1ccc(CCNCc2ccccc2)cc1     pKi      < 5.60
3      NCc1ccc(Oc2ccc(CCNCc3ccccc3)cc2)nc1     pKi      < 5.60
4  NC(=O)c1ccc(Oc2ccc(CCNCc3ccccc3)cc2)nc1     pKi        8.13

###

- Subject Of Test: Kappa-type opioid receptor (Homo sapiens, UniProt P41145)
- Sequence (P41145 whole entry): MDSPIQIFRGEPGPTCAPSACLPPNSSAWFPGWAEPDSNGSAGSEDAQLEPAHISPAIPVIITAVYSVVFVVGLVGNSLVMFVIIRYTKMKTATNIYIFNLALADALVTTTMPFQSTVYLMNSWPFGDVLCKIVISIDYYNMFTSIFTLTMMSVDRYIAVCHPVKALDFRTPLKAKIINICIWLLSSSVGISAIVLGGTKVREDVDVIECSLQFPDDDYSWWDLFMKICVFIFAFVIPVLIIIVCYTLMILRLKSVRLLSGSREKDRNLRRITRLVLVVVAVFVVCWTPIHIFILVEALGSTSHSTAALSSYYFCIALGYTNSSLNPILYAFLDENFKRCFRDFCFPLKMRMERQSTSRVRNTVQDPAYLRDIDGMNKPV
- Assay: Displacement of [3H]diprenorphine from human kappa opioid receptor expressed in CHO cells in presence of high sodium by SPA
- Assay type: cell-based
Metric: Ki

> print(dat)
                               input.smiles  metric  test.value
1  CNC(=O)c1ccc(Oc2ccc(CNCCc3ccccc3)cc2)nc1      Ki      > 5 µM
2  O=C(c1ccc(Oc2ccc(CNCCc3ccccc3)cc2)nc1)N1CCCCC1      Ki      > 5 µM
3   NC(=O)c1ccnc(Oc2ccc(CCNCc3ccccc3)cc2)c1      Ki      > 5 µM
4      N#Cc1ccc(Oc2ccc(CCNCc3ccccc3)cc2)nc1      Ki      > 5 µM
5   N=C(N)c1ccc(Oc2ccc(CNCCc3ccccc3)cc2)nc1      Ki     1.15 µM
6  CC(C)NC(=O)c1ccc(Oc2ccc(CNCCc3ccccc3)cc2)nc1      Ki      > 5 µM
7       NCc1ccc(Oc2ccc(CCNCc3ccccc3)cc2)nc1      Ki      > 5 µM

###

In this section, each of the compounds is paired with its reported Ki.
- Subject Of Test: Mu-type opioid receptor (Homo sapiens, UniProt P35372)
- Sequence (P35372 whole entry): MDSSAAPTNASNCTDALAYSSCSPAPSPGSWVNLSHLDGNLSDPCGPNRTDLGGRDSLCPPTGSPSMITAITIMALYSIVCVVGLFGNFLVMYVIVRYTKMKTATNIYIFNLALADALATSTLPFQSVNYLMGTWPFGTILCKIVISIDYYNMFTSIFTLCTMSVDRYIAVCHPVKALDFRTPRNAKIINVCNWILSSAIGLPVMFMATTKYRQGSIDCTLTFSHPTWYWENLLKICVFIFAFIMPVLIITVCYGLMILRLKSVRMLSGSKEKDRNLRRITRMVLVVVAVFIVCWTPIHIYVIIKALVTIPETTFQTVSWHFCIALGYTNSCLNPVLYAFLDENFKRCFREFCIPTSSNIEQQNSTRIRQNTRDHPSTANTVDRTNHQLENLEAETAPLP
- Assay: Antagonist activity at human mu opioid receptor expressed in CHO cells by [35S]GTP-gamma-S binding assay
- Assay type: functional, cell-based
Metric: Ki

> print(dat)
                               input.smiles  metric  test.value
1   NC(=O)c1ccc(Oc2ccc(NCCCc3ccccc3)cc2)nc1      Ki   > 1000 nM
2  NC(=O)c1ccc(Oc2ccc(CCCNCc3ccccc3)cc2)nc1      Ki     22.3 nM
3   NC(=O)c1ccc(Oc2ccc(CCCNc3ccccc3)cc2)nc1      Ki   > 1000 nM

This collection of values is drawn from ChEMBL document CHEMBL1149707.
